Listed here: items and their measured GI50.
System: SK-MEL-2
measurement_notes: NCI tumour cell line growth inhibition, 48 h
Activity calls are given as the source filed them. Rule as the data show it: active = GI50 up to about 1.1 µM and inactive = higher.

CCOC(=O)/C=C(/C(=O)OCC)n1cc(Cl)c(=O)n(CC(=O)OCC)c1=O :: 4.84 µM (inactive)

Prompt: Fill in the blank: the reported GI50 of O=c1c(S(=O)(=O)Oc2ccccc2)coc2cc(F)ccc12 is ____.
Completion: 46.8 µM (inactive)

* * *

Test system: COLO 205
measurement_notes: NCI tumour cell line growth inhibition, 48 h
Calls of active or inactive are those of the source. No stated cut-off is given here; in the data, active = GI50 up to about 1.1 µM and inactive = higher.
GI50 overview

Please review the following examples before continuing.
COC(=O)C(C)NP(=O)(N1CC1)N1CC1 (stereo not given) :: > 100 µM (inactive)
C=CCc1c(C)nc(C)nc1N/N=C/C=C/c1ccccc1 :: 24.8 µM (inactive)
COc1ccc2c(c1)CCc1[nH]c3ccccc3c1CCCC2 :: > 10 µM (inactive)

Prompt: Param item = COc1ccc(/C=c2/sc3n(c2=O)NC(c2ccc(Cl)cc2)NN=3)cc1 (stereo not given) ; retrieve measured GI50.
Completion: > 100 µM (inactive)

Prompt: Now this one: CCOC(=O)C(C)(C(=O)OCC)/C(Cl)=C\Cl
Completion: > 100 µM (inactive)

Prompt: Follow-up entry: CCOC(=O)c1nc(C)oc1C(F)(F)F
Completion: > 100 µM (inactive)

Prompt: Try the compound CC1(C)N=C(c2ccccc2)SC12S[C@@H]1CCCC[C@H]1S2
Completion: > 100 µM (inactive)

Prompt: Now give it for [O-][S+](CC1(O)CCCCC1)c1ccccc1 (stereo not given) too.
Completion: > 100 µM (inactive)

* * *

Test system: HCC 2998
measurement_notes: NCI tumour cell line growth inhibition, 48 h
Calls of active or inactive are those of the source. Cut-off read from the data, not from the text of the source: active = GI50 up to about 1.1 µM and inactive = higher.
assay_readout: GI50

// below: answered compounds
O=C(NC(Cl)(C(F)(F)F)C(F)(F)F)c1ccc(F)cc1 :: > 100 µM (inactive)
CCCNC(=O)Cn1c(-c2ccccc2)cc2ccccc21 :: > 100 µM (inactive)
Cc1ccnc2c1C(=O)C1=C(OC(C)(C)CC1O)C2=O (stereo not given) :: 3.88 µM (inactive)

Prompt: For the compound COc1ccc(/C=N\N(C)Cc2cccc3ccsc23)cc1 , what GI50 is on record?
Completion: > 100 µM (inactive)

Prompt: And the next one, COc1ccc([C@H]2c3cc4c(cc3OC(O)(CO)[C@H]2C(=O)O)OCO4)c(OC)c1.COc1ccc([C@H]2c3cc4c(cc3OC3(O)COC(=O)[C@@H]23)OCO4)c(OC)c1 (stereo not given in full) ?
Completion: > 100 µM (inactive)

Prompt: Note, next up: COc1ccc(OC)c2[s+]snc12
Completion: > 100 µM (inactive)

Prompt: Moving on to CCCCCCCCCCCCCP(=O)(O)OCC
Completion: > 100 µM (inactive)

Prompt: Same again, this time with O=C(NCCO)c1c(O)c2ccccc2[nH]c1=O
Completion: > 100 µM (inactive)

Prompt: Do the same for COc1cc(C2c3cc4c(cc3[C@@H](Nc3ccc(Oc5ccccc5)cc3)C3COC(=O)[C@H]23)OCO4)cc(OC)c1O (stereo not given in full) please
Completion: 1.64 µM (inactive)

Prompt: Another: O=C(NCCCN(CCCCN(CCCNC(=O)C(F)(F)F)Cc1ccc2ccccc2c1)Cc1ccc2ccccc2c1)C(F)(F)F
Completion: 1.53 µM (inactive)
